experiment: Selectivity index, ratio of CC50 for African green monkey Vero E6 cells to EC50 for chikungunya virus infected in African green monkey Vero cells; type: toxicity, Vero C1008; conditions: read-out: Ratio CC50/EC50
recorded_metric: selectivity ratio

If you can, please state the reported selectivity ratio value of CCN1C(=O)CCSC1c1cc2cc(Cc3ccc4oc(C5SCCC(=O)N5CC)cc4c3)ccc2o1 (stereo unspecified) .
75

====

So I've got a bunch of molecules here, and I need their EC50 values.
tested on: Chikungunya virus; assay: Antiviral activity against Chikungunya virus 899 infected in African green monkey Vero A cells assessed as inhibition of viral RNA replication by RT-qPCR analysis; type: functional, organism-based; conditions: Chikungunya virus, 899, Vero

If you can, please state the reported EC50 value of Nc1nc(SCc2cc3ccccc3oc2=O)c2nc(SCc3ccccc3)n([C@@H]3O[C@H](CO)[C@@H](O)[C@H]3O)c2n1 .
> 173 µM

Another: COc1cccc2cc(CSc3nc(N)nc4c3nc(SCc3cc5cccc(OC)c5oc3=O)n4[C@@H]3O[C@H](CO)[C@@H](O)[C@H]3O)c(=O)oc12
10.3 µM

Another: Nc1nc(SCc2cc3cc(Br)ccc3oc2=O)c2nc(SCc3ccccc3)n([C@@H]3O[C@H](CO)[C@@H](O)[C@H]3O)c2n1
> 152 µM

Another: CSc1nc2c(SCc3cc4ccccc4oc3=O)nc(N)nc2n1[C@@H]1O[C@H](CO)[C@@H](O)[C@H]1O
> 198 µM

Another: CSc1nc2c(SCc3cc4cc(Cl)ccc4oc3=O)nc(N)nc2n1[C@@H]1O[C@H](CO)[C@@H](O)[C@H]1O
> 186 µM

Another: Nc1nc2c(nc(SCc3ccccc3)n2[C@@H]2O[C@H](CO)[C@@H](O)[C@H]2O)c(=S)[nH]1
> 237 µM

Another: Nc1nc(SCc2cc3ccccc3oc2=O)c2nc(SCc3cc4ccccc4oc3=O)n([C@@H]3O[C@H](CO)[C@@H](O)[C@H]3O)c2n1
> 154 µM

Another: Nc1nc(SCc2cc3cc(Cl)ccc3oc2=O)c2nc(SCc3ccccc3)n([C@@H]3O[C@H](CO)[C@@H](O)[C@H]3O)c2n1
> 163 µM

Another: Nc1nc(SCc2cc3cc(Cl)ccc3oc2=O)c2nc(SCc3cc4cc(Cl)ccc4oc3=O)n([C@@H]3O[C@H](CO)[C@@H](O)[C@H]3O)c2n1
> 140 µM

Another: Nc1nc2c(nc(S)n2[C@@H]2O[C@H](CO)[C@@H](O)[C@H]2O)c(=S)[nH]1
> 302 µM

Another: COc1ccc2oc(=O)c(CSc3nc(N)nc4c3nc(SCc3cccc5ccccc35)n4[C@@H]3O[C@H](CO)[C@@H](O)[C@H]3O)cc2c1
13.9 µM

Another: COc1cccc2cc(CSc3nc(N)nc4c3nc(SC)n4[C@@H]3O[C@H](CO)[C@@H](O)[C@H]3O)c(=O)oc12
> 188 µM

Another: COc1ccc2oc(=O)c(CSc3nc(N)nc4c3nc(SCc3ccccc3)n4[C@@H]3O[C@H](CO)[C@@H](O)[C@H]3O)cc2c1
> 164 µM

Another: COc1ccc2oc(=O)c(CSc3nc(N)nc4c3nc(SCc3cc5cc(OC)ccc5oc3=O)n4[C@@H]3O[C@H](CO)[C@@H](O)[C@H]3O)cc2c1
9.9 µM

Another: CSc1nc2c(SCc3cc4cc(Br)ccc4oc3=O)nc(N)nc2n1[C@@H]1O[C@H](CO)[C@@H](O)[C@H]1O
> 172 µM

The origin of these recorded values is ChEMBL document CHEMBL4400522.
